System: TA100
Assay: Ames test, strain TA100
Format: cell-based
Conditions: 50 μg/dish
We begin with a simple list: items and their reported TA100 −S9.
Respond with the number and no other words.

Prompt: Entry under review: O=c1c2ccc(Cl)cc2[se]n1-c1ccncc1 [IMM-313] . Reported TA100 −S9?
Completion: 0

Prompt: Entry under review: O=c1c2cc(F)ccc2[se]n1-c1ccccn1 [IMM-127] . Reported TA100 −S9?
Completion: 67.67

Prompt: Entry under review: O=c1c2cc(Cl)ccc2[se]n1-c1ccccn1 [IMM-004] . Reported TA100 −S9?
Completion: 89.67

Prompt: Entry under review: C/C(=N\O)c1ccc(-n2[se]c3ccccc3c2=O)cc1 [IMM-065] . Reported TA100 −S9?
Completion: 108.67

Prompt: Entry under review: O=c1c2cc(F)ccc2[se]n1-c1cccnc1 [IMM-128] . Reported TA100 −S9?
Completion: 135.00

###

We begin with a simple list: items and their reported Inhibitory rate of inward INa—Ca (%).
Biological target: Na^+/Ca^2+ exchanger (Cavia porcellus)
Construct: endogenous in cells; host or cells: freshly isolated guinea pig ventricular myocytes
Assay: Na^+/Ca^2+ exchange current (INa—Ca), whole-cell patch clamp, intracellular Na^+ overload cell model
Assay type: cell-based, guinea pig
Set-up: concentration or dose not given beside the values
Conditions: screening of 22 candidate compounds
Response body: numeric value in %, unit text excluded.

Example cases with answers are listed next.
compound="O=c1c2cc(O)ccc2[se]n1-c1ccccn1 [IMM-163]" measured_value=19
compound="O=c1c2cc(Cl)ccc2[se]n1-c1ccncc1 [IMM-132]" measured_value=14

Prompt: Entry under review: O=c1c2cc(F)ccc2[se]n1-c1ccccc1 [IMM-130] . Reported Inhibitory rate of inward INa—Ca (%)?
Completion: 43

###

Test system: TA97
Assay: Ames test, strain TA97
Format: cell-based
Settings: 50 μg/dish
We begin with a simple list: items and their reported TA97 −S9.

Prompt: Write down the reported TA97 −S9 of C/C(=N\O)c1ccc(-n2[se]c3ccccc3c2=O)cc1 , test system: TA97.
Completion: 69.67 ± 3.77

###

Tested on: TA100
Assay: Ames test, strain TA100
Assay type: cell-based
Conditions: 5 μg/dish
measurement.name: TA100 +S9
Respond with the number and no other words.

Example cases with answers are listed next.
structure_smiles=C/C(=N\O)c1ccc(-n2[se]c3ccccc3c2=O)cc1 assay_system=TA100 measured_value=167.00
structure_smiles=O=c1c2ccc(Cl)cc2[se]n1-c1ccncc1 assay_system=TA100 measured_value=111.33
structure_smiles=O=c1c2cc(Cl)ccc2[se]n1-c1ccccn1 assay_system=TA100 measured_value=215.33

Prompt: Entry under review: O=c1c2cc(F)ccc2[se]n1-c1cccnc1 . Reported TA100 +S9?
Completion: 149.67

Prompt: Entry under review: O=c1c2cc(F)ccc2[se]n1-c1ccccn1 . Reported TA100 +S9?
Completion: 102.67

###

Test system: TA102
Assay: Ames test, strain TA102
Format: cell-based
Details: 0.5 μg/dish
Assign true (1) whenever TA102 +S9 does not fall below 300; assign false (0) whenever it does.

Please review the entries below; each comes with its answer.
structure_smiles=O=c1c2ccc(Cl)cc2[se]n1-c1ccncc1 assay_system=TA102 qualitative_label="false (0)"
structure_smiles=O=c1c2cc(F)ccc2[se]n1-c1cccnc1 assay_system=TA102 qualitative_label="false (0)"
structure_smiles=O=c1c2cc(Cl)ccc2[se]n1-c1ccccn1 assay_system=TA102 qualitative_label="true (1)"
structure_smiles=C/C(=N\O)c1ccc(-n2[se]c3ccccc3c2=O)cc1 assay_system=TA102 qualitative_label="false (0)"

Prompt: Quick check, TA102 +S9 >= 300? O=c1c2cc(F)ccc2[se]n1-c1ccccn1
Completion: false (0)

# credit: patent US20060135569A1
